- Study System: L-lactate dehydrogenase (Plasmodium falciparum (isolate CDC / Honduras)) (UniProt Q27743)
- Sequence (Q27743 whole entry, looked up): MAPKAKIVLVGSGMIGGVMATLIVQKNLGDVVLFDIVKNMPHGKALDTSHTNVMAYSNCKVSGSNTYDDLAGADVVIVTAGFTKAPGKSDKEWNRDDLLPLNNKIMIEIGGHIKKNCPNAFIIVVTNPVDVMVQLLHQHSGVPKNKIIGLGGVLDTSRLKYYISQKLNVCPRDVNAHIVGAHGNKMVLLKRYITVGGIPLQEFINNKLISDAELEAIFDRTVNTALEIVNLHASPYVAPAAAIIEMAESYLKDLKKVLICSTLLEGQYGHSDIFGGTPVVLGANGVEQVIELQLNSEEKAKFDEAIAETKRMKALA
- Protocol: PfLDH activity inhibition – cell lysate, 3D7 strain, counter-screen for P. falciparum growth inhibition project (AID 2304);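 also: 0% = vehicle and 100% = reference inhibitor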
- Assay Conditions: P. falciparum 3D7 crude extract, LDH APAD/NBT absorbance; at 2 µM; hits give high values
The source made the active and inactive calls. No rule for the calls is given here.
Reported Endpoint: inhibition

>  <Compound>
COc1cc(NC(=O)/C=C/c2cc(F)cc(F)c2F)cc(OCCN2CCN(CCN3CCOCC3)CC2)c1

>  <Measurement>
0% (inactive)

$$$$
>  <Compound>
Cc1cc(N[C@@H](Cc2ccccc2)C(=O)NCc2cccs2)nc(NCCc2cccnc2)n1

>  <Measurement>
-4% (inactive)

$$$$
>  <Compound>
O=C(c1cc(-c2ccco2)[nH]n1)N1CCN(S(=O)(=O)c2ccc(Br)cc2)CC1

>  <Measurement>
-5% (inactive)

$$$$
>  <Compound>
CNCc1cccc2[nH]c(-c3ccc(Cc4cc(Cl)ccc4OCC(C)C)o3)nc12

>  <Measurement>
0% (inactive)

$$$$
>  <Compound>
O=C(Nc1cccc(-c2cccc(-c3nc4ccccc4[nH]3)c2)c1)c1ccncc1

>  <Measurement>
-4% (inactive)

$$$$
>  <Compound>
COc1cccc(-c2ccc(O)c(CNCCc3cccc(F)c3)c2)n1

>  <Measurement>
0% (inactive)

$$$$
>  <Compound>
N#Cc1ccc2c(c1)CCN(CCC1CCC(NC(=O)c3cc4ccccc4[nH]3)CC1)CC2 (configuration not stated)

>  <Measurement>
-1% (inactive)

$$$$
>  <Compound>
COc1cc2c(C3CCN(CC4CCC(NC(=O)/C=C/c5ccc(Cl)c(Cl)c5)CC4)CC3)c[nH]c2cn1 (configuration not stated)

>  <Measurement>
-5% (inactive)

$$$$
>  <Compound>
N=C(N)c1ccc(NC(=O)c2cc(Sc3ccc(O)c(C(=O)Nc4ccc(C(=N)N)cc4)c3)ccc2O)cc1

>  <Measurement>
2% (inactive)

$$$$
>  <Compound>
Nc1ncc(-c2ccc(NC(=O)Nc3cc(C(F)(F)F)ccc3F)cc2)c(N)n1

>  <Measurement>
-5% (inactive)

$$$$
>  <Compound>
COC(=O)C(NC(=O)NC1CCN(c2ccnc(Nc3ccc(F)cc3)n2)C1)c1ccccc1 (configuration not stated)

>  <Measurement>
-2% (inactive)

$$$$
>  <Compound>
Cc1ccc(C2=NNC3(S2)C(=O)Nc2ccc(C)cc23)cc1 (configuration not stated)

>  <Measurement>
6% (inactive)

$$$$
>  <Compound>
CN1CCN(c2ccnc3ccc(NC(=O)Nc4cccc5c(-c6ccncc6)cccc45)cc23)CC1

>  <Measurement>
1% (inactive)

$$$$
>  <Compound>
Cc1cc(NC(=O)Nc2ccc(C#N)cc2)c2ccccc2n1

>  <Measurement>
-2% (inactive)

$$$$
>  <Compound>
CCC(C)c1cccc(C(C)CC)c1OCCCON1C(N)=NC(N)=NC1(C)C (configuration not stated)

>  <Measurement>
-4% (inactive)

$$$$
>  <Compound>
COc1ccc2nccc([C@@H](O)CN3CCC(NCc4ccc(OC)c(NC(C)=O)c4)CC3)c2c1

>  <Measurement>
-4% (inactive)

$$$$
>  <Compound>
COc1ccccc1N1CCN(C(C(=O)NCc2ccc(C)cc2)c2ccc(C)cc2)CC1 (configuration not stated)

>  <Measurement>
6% (inactive)

$$$$
>  <Compound>
O=C(/C=C/c1ccc(Cl)c(Cl)c1)N1CCC(CN2CCC(Cc3c[nH]c4ccccc34)CC2)CC1

>  <Measurement>
1% (inactive)

$$$$
>  <Compound>
CCOC(=O)CC[C@@H](NC(=O)c1ccc(NCc2ccc3ccc4nc(C)[nH]c(=O)c4c3c2)cc1F)C(=O)N[C@@H](Cc1c[nH]c2ccccc12)C(=O)OCC

>  <Measurement>
0% (inactive)

$$$$
>  <Compound>
O=C(Nc1cc(F)cc(F)c1)N1CCOC(CCN2CCC3(CCc4ccccc43)CC2)(c2ccc(Cl)c(Cl)c2)C1 (configuration not stated)

>  <Measurement>
4% (inactive)

$$$$
>  <Compound>
Cc1cccc2[nH]c(-c3cccc(-c4ccc(CN5CCN(CCO)CC5)cc4)c3)nc12

>  <Measurement>
-4% (inactive)

$$$$
>  <Compound>
Cc1cc2c(cc1C(F)(F)F)N(C(=O)Nc1cccc(C(=O)NC3CCN(Cc4ccccc4)CC3)c1)CC2

>  <Measurement>
-2% (inactive)

$$$$
>  <Compound>
Cc1cccc2[nH]c(-c3ccc(-c4cccc(CNCCN5CCNCC5)c4)cc3)nc12

>  <Measurement>
1% (inactive)

$$$$
>  <Compound>
Cc1cc(N[C@@H](CC(C)C)C(=O)Nc2ccccc2)nc(NCCc2ccc(F)cc2)n1

>  <Measurement>
4% (inactive)

$$$$
>  <Compound>
N#Cc1cccc(-c2nc(NCc3cccc(C(F)(F)F)c3)nn2-c2cccc(C(F)(F)F)c2)c1

>  <Measurement>
3% (inactive)

$$$$
>  <Compound>
Cc1cc(N)c2cc(NC(=O)CCC(=O)Nc3ccc4nc(C)cc(N)c4c3)ccc2n1

>  <Measurement>
1% (inactive)

$$$$
>  <Compound>
COc1ccc2ncc(F)c(CCN3CCC(NCc4cc(OC)c5c(c4)OCCO5)CC3)c2n1

>  <Measurement>
-3% (inactive)

$$$$
